- assay: Binding affinity to Leishmania mexicana CPB2.8 assessed as inhibition constant
Criterion: Ki strictly under 1000 nM. Met: satisfied. Not met: not satisfied.

# compound, categoryLabel
measured = [
    ("C[C@@H]1CCC2(C(=O)O)CC[C@]3(C)C(=CCC4[C@@]5(C)CCC(=O)C(C)(C)C5CC[C@]43C)C2[C@H]1C (stereo not given in full)", "not satisfied"),
    ("COC(=O)c1ccc(NC(=O)CSc2nc3ccc(Cl)cc3n2Cc2cc(C)cc(C)c2)c(Cl)c1", "satisfied"),
    ("O=c1c(O)c(-c2ccc3c(c2)OCO3)oc2ccccc12", "not satisfied"),
    ("COC(=O)c1ccc(NC(=O)CSc2nc3ccc(Cl)cc3n2S(=O)(=O)c2cc(C)cc(C)c2)c(Cl)c1", "satisfied"),
    ("Cc1cc(C)cc(S(=O)(=O)n2c(SCC(=O)Nc3ccccc3)nc3ccccc32)c1", "satisfied"),
    ("CC(C)=CCOc1ccc(C(=O)c2ccc(O)cc2)c(O)c1", "not satisfied"),
    ("COC(=O)c1ccc(NC(=O)CSc2nc3ccccc3n2S(=O)(=O)c2cc(C)cc(C)c2)cc1", "satisfied"),
    ("CN(C)c1ccc(/C=C/C(=O)c2cc(Cl)ccc2O)cc1", "not satisfied"),
    ("COc1ccc(-c2oc3ccccc3c(=O)c2O)cc1", "not satisfied"),
    ("Cc1ccc(C(=O)[C@@]23C(=O)OC(=O)[C@]2(C)N(C)[C@]2(c4ccccc4)Sc4ccccc4[C@H]32)cc1", "not satisfied"),
]
